Tested on: P388 mouse leukemia cells
Conditions: 92 h
Where a SMILES comes first, the peptide text is derived from it. [ ]: non-standard residue; d: D form. The star is where a group is joined. NHCH2CH2OH = OCCN*; For = O=C*
reported_property: cell viability/% (%)

compound	quantitative_result
CC(C)C[C@@H](NC(=O)[C@H](C)NC(=O)CNC(=O)[C@@H](NC=O)C(C)C)C(=O)N[C@@H](C)C(=O)N[C@@H](C(=O)N[C@H](C(=O)N[C@H](CC(C)C)C(=O)N[C@@H](Cc1c[nH]c2ccccc12)C(=O)N[C@@H](C(=O)N[C@@H](Cc1c[nH]c2ccccc12)C(=O)N[C@@H](C(=O)N[C@@H](Cc1c[nH]c2ccccc12)C(=O)N[C@@H](C(=O)N[C@@H](Cc1c[nH]c2ccccc12)C(=O)NCCO)[C@H](C)O)C(C)C)C(C)C)C(C)C)C(C)C [compound 12984] (For-VGA[dL]A[dV]V[dL]W[dV]W[dV]W[dT]W-NHCH2CH2OH)	81.1
CC(C)C[C@@H](NC(=O)[C@H](C)NC(=O)[C@H](NC(=O)[C@H](C)NC(=O)CNC(=O)[C@@H](NC=O)C(C)C)C(C)C)C(=O)N[C@H](C(=O)N[C@H](CC(C)C)C(=O)N[C@@H](Cc1c[nH]c2ccccc12)C(=O)N[C@@H](C(=O)N[C@@H](Cc1c[nH]c2ccccc12)C(=O)N[C@@H](C(=O)N[C@@H](Cc1c[nH]c2ccccc12)C(=O)N[C@@H](C(=O)N[C@@H](Cc1c[nH]c2ccccc12)C(=O)NCCO)C(C)C)C(C)C)C(C)C)C(C)C [compound 2212] (For-VGA[dV]A[dL]V[dL]W[dV]W[dV]W[dV]W-NHCH2CH2OH)	11.5
CC(C)C[C@@H](NC(=O)[C@H](Cc1c[nH]c2ccccc12)NC(=O)[C@@H](CC(C)C)NC(=O)[C@@H](NC(=O)[C@H](NC(=O)[C@H](C)NC(=O)[C@H](NC(=O)[C@H](C)NC(=O)CNC(=O)[C@@H](NC=O)C(C)C)C(C)C)C(C)C)C(C)C)C(=O)N[C@@H](Cc1c[nH]c2ccccc12)C(=O)N[C@@H](C(=O)N[C@@H](Cc1c[nH]c2ccccc12)C(=O)N[C@@H](C(=O)N[C@@H](Cc1c[nH]c2ccccc12)C(=O)NCCO)C(C)C)[C@H](C)O [compound 5311] (For-VGA[dV]A[dV]V[dL]W[dL]W[dT]W[dV]W-NHCH2CH2OH)	100.0
CNC(=O)C[C@@H](NC(=O)[C@H](Cc1c[nH]c2ccccc12)NC(=O)[C@H](NC(=O)[C@H](Cc1c[nH]c2ccccc12)NC(=O)[C@H](NC(=O)[C@H](Cc1c[nH]c2ccccc12)NC(=O)[C@@H](CC(C)C)NC(=O)[C@@H](NC(=O)[C@H](NC(=O)[C@H](C)NC(=O)[C@H](NC(=O)[C@H](C)NC(=O)CNC(=O)[C@@H](NC=O)C(C)C)C(C)C)C(C)C)C(C)C)C(C)C)C(C)C)C(=O)N[C@@H](Cc1c[nH]c2ccccc12)C(=O)NCCO [compound 5604] (For-VGA[dV]A[dV]V[dL]W[dV]W[dV]W[dD](NHMe)W-NHCH2CH2OH)	69.7

Where do the numbers come from? From paper PMC7531004.
